pKi: −log10 of the molar value.
// human histamine H1 receptor (Homo sapiens) pKi records
ASSAY READOUT: pKi

# MOLECULE, SYSTEM NAME, ASSAY READOUT, VALUE MEASURED
measured = [
    ("Nc1nc2c(c(N3CCN(CCOC[C@H]4CC[C@@H](C(=O)O)C4)CC3)n1)CCc1cc(OCc3ccc(Cl)cc3)ccc1-2 (relative stereo)", "human histamine H1 receptor (Homo sapiens)", "pKi", "> 7.00"),
    ("Nc1nc2c(c(N3CCN(CCOCc4ccc(C(=O)O)cc4)CC3)n1)CCc1cc(OCc3ccc(Cl)cc3)ccc1-2", "human histamine H1 receptor (Homo sapiens)", "pKi", "> 7.00"),
    ("Nc1nc2c(c(N3CCN(CCOc4cccc(CC(=O)O)c4)CC3)n1)CCc1cc(OCc3ccc(Cl)cc3)ccc1-2", "human histamine H1 receptor (Homo sapiens)", "pKi", "> 7.00"),
]

* * *

Recorded Ki for the following compounds
Target: human histamine H4 receptor (Homo sapiens, UniProt Q9H3N8)
Construct: purchased PerkinElmer Inc; host or cells: CHO-K1
Sequence (Q9H3N8 whole entry): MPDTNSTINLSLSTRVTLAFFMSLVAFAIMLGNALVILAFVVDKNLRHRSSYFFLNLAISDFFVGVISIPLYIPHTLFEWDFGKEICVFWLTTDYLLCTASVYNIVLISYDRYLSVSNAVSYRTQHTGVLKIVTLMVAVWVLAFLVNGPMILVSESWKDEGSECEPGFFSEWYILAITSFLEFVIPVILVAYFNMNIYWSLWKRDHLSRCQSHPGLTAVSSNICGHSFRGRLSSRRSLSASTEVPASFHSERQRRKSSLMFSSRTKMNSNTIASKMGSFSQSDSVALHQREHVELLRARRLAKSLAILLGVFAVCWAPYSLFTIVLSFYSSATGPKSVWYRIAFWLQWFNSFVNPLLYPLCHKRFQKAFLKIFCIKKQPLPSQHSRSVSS
Assay: Evaluation of Human H4 Receptor Affinity ([3H]histamine binding)
Conditions: inhibition constant Ki, CHO-K1 membrane preparation, read-out: Evaluation of H4 Receptor Affinity
Description: Test Example 2: Evaluation of Human H4 Receptor Affinity […]
Structures can show the parent of a compound that is named as a salt.

# COMPOUND, SYSTEM NAME, Ki
data = [
    ("CCOC(=O)C1CCC(O)(COCCN2CCN(c3nc(N)nc4c3CCc3cc(OCc5ccc(Cl)cc5)ccc3-4)CC2)CC1 (stereo not shown) [166(a)]", "human histamine H4 receptor (Homo sapiens, UniProt Q9H3N8)", "100 to 500 nM"),
    ("CCOC(=O)C1(C#N)CCC(COCCN2CCN(c3nc(N)nc4c3CCc3cc(OCc5ccc(Cl)cc5)ccc3-4)CC2)CC1 (stereo not shown) [160(a)]", "human histamine H4 receptor (Homo sapiens, UniProt Q9H3N8)", "100 to 500 nM"),
    ("CS(=O)(=O)NCCOCCOCCN1CCN(c2nc(N)nc3c2CCc2cc(OCc4ccccc4)ccc2-3)CC1 [Example 110, dihydrochloride]", "human histamine H4 receptor (Homo sapiens, UniProt Q9H3N8)", "< 100 nM"),
    ("Nc1nc2c(c(N3CCN(CCOCC4CC5(C4)CC(C(=O)O)C5)CC3)n1)CCc1cc(OCc3ccc(Cl)cc3)ccc1-2 (stereo not shown) [Example 152, hydrochloride]", "human histamine H4 receptor (Homo sapiens, UniProt Q9H3N8)", "< 100 nM"),
    ("NC(=O)N1CC(COCCN2CCN(c3nc(N)nc4c3CCc3cc(OCc5ccc(OC(F)(F)F)cc5)ccc3-4)CC2)C1 [Example 39]", "human histamine H4 receptor (Homo sapiens, UniProt Q9H3N8)", "< 100 nM"),
    ("Nc1nc2c(c(N3CCN(CCCCOc4ccc(C(=O)O)cc4)CC3)n1)CCc1cc(OCc3ccc(Cl)cc3)ccc1-2 [Example 134, hydrochloride]", "human histamine H4 receptor (Homo sapiens, UniProt Q9H3N8)", "100 to 500 nM"),
    ("Nc1nc2c(c(N3CCN(CCOC4CC4C(=O)O)CC3)n1)CCc1cc(OCc3ccc(Cl)cc3)ccc1-2 (stereo not shown) [Example 154]", "human histamine H4 receptor (Homo sapiens, UniProt Q9H3N8)", "100 to 500 nM"),
]

* * *

Target: human histamine H4 receptor (Homo sapiens)
Construct: purchased PerkinElmer Inc; host or cells: CHO-K1
Experiment: Evaluation of Human H4 Receptor Affinity ([3H]histamine binding)
Details: inhibition constant Ki, CHO-K1 membrane preparation, read-out: Evaluation of H4 Receptor Affinity
pKi: −log10 of the molar value.
Items are presented alongside their recorded pKi.

# COMPOUND, SYSTEM NAME, pKi
rows = [
    ("Nc1nc2c(c(N3CCN(CCO[C@H]4CC[C@@H](C(=O)O)CC4)CC3)n1)CCc1cc(OCc3ccc(Cl)cc3)ccc1-2 [Example 24]", "human histamine H4 receptor (Homo sapiens)", "6.30 to 7.00"),
    ("C[C@]1(C(=O)O)C[C@@H](OCCN2CCN(c3nc(N)nc4c3CCc3cc(OCc5ccc(Cl)cc5)ccc3-4)CC2)C1 [26(b)]", "human histamine H4 receptor (Homo sapiens)", "6.30 to 7.00"),
    ("CN1CCN(c2nc(N)nc3c2CCc2cc(NS(=O)(=O)c4ccc(Cl)cc4)ccc2-3)CC1 [Example 42]", "human histamine H4 receptor (Homo sapiens)", "> 7.00"),
    ("Nc1nc2c(c(N3CCN(CCOCc4cccc(C(=O)O)c4)CC3)n1)CCc1cc(OCc3ccc(OC(F)(F)F)cc3)ccc1-2 [16(b)]", "human histamine H4 receptor (Homo sapiens)", "> 7.00"),
    ("Nc1nc2c(c(N3CCN(CCOCc4cc(C(=O)O)ccc4F)CC3)n1)CCc1cc(OCc3ccc(Cl)cc3)ccc1-2 [129(b)]", "human histamine H4 receptor (Homo sapiens)", "6.30 to 7.00"),
    ("Cc1cc(OC(F)(F)F)ccc1COc1ccc2c(c1)CCc1c-2nc(N)nc1N1CCN(CCO[C@H]2C[C@@H](C(=O)O)C2)CC1 [Example 208]", "human histamine H4 receptor (Homo sapiens)", "> 7.00"),
    ("Nc1nc2c(c(N3CCN(CCOCC4CC(C(=O)O)C4)CC3)n1)CCc1cc(OCc3ccc(Cl)cc3)ccc1-2 (stereo not shown) [Example 170]", "human histamine H4 receptor (Homo sapiens)", "> 7.00"),
]

* * *

As shown below, each of these molecules has a reported pIC50 value.
Biological target: human histamine H4 receptor (Homo sapiens)
Construct: purchased PerkinElmer Inc; host or cells: CHO-K1
Test: Evaluation of H4 Receptor Function ([35S]GTPγS binding)
Type: biochemical
Details: [35S]GTPγS binding, CHO-K1 membrane, 0.1 μM histamine; read-out: Evaluation of H4 Receptor Function (IC50 value, antagonistic effect)
Description: The antagonistic effect was evaluated by the method described below. Membrane preparation from recombinant CHO-K1 cell expressing the human histamine H4 receptor (PerkinElmer Inc.), 10 μM GDP, 0.1 μM histamine, and the compounds dissolved in DMSO were reacted at 30° C. for 20 minutes in a buffering solution containing 20 mM HEPES, pH 7.4, 100 mM NaCl, 10 mM MgCl2, 1 mM DTT, and 1 mM EDTA on an assay plate. […]
pIC50: −log10 of the molar value.
ASSAY READOUT: pIC50

# SMILES, ASSAY READOUT, VALUE MEASURED
measured = [
    ("Nc1nc2c(c(N3CCN(CCOCc4ccc(C(=O)O)o4)CC3)n1)CCc1cc(OCc3ccc(Cl)cc3)ccc1-2", "pIC50", "5.70 to 6.70"),
    ("CN1CCN(c2nc(N)nc3c2CCc2cc(NS(=O)(=O)c4ccc(Cl)cc4)ccc2-3)CC1", "pIC50", "5.70 to 6.70"),
    ("Nc1nc2c(c(N3CCN(CCO[C@H]4C[C@@H](CC(=O)O)C4)CC3)n1)CCc1cc(OCc3ccc(OC(F)(F)F)cc3)ccc1-2", "pIC50", "> 6.70"),
    ("Nc1nc2c(c(N3CCN(CCOCc4cccc(C(=O)O)c4)CC3)n1)CCc1cc(OCc3ccc(Cl)cc3)ccc1-2", "pIC50", "5.70 to 6.70"),
    ("Nc1nc2c(c(N3CCN(CCOC[C@H]4CC[C@@H](C(=O)O)CC4)CC3)n1)CCc1cc(OCc3ccc(Cl)cc3)ccc1-2", "pIC50", "5.70 to 6.70"),
    ("CS(=O)(=O)NCCOCCOCCN1CCN(c2nc(N)nc3c2CCc2cc(OCc4ccc(Cl)cc4)ccc2-3)CC1", "pIC50", "> 6.70"),
    ("Nc1nc2c(c(N3CCN(CCOCCOCc4nn[nH]n4)CC3)n1)CCc1cc(OCc3ccc(Cl)cc3)ccc1-2", "pIC50", "5.70 to 6.70"),
]

* * *

Biological target: human histamine H4 receptor (Homo sapiens, UniProt Q9H3N8)
Construct: purchased PerkinElmer Inc; host or cells: CHO-K1
Test: Evaluation of Human H4 Receptor Affinity ([3H]histamine binding)
Conditions: inhibition constant Ki, CHO-K1 membrane preparation, read-out: Evaluation of H4 Receptor Affinity
Structures can show the parent of a compound that is named as a salt.

# COMPOUND, Ki
measured = [
    ("CC(C)(OCCOCCN1CCN(c2nc(N)nc3c2CCc2cc(OCc4ccc(Cl)cc4)ccc2-3)CC1)C(=O)O", "100 to 500 nM"),
    ("Nc1nc2c(c(N3CCN(CCO[C@@H]4C[C@@H]5[C@H](C4)[C@@H]5C(=O)O)CC3)n1)CCc1cc(OCc3ccc(OC(F)(F)F)cc3)ccc1-2", "100 to 500 nM"),
    ("CS(=O)(=O)NCCOCCOCCN1CCN(c2nc(N)nc3c2CCc2cc(OCc4ccc(Cl)cc4)ccc2-3)CC1", "< 100 nM"),
    ("COC(=O)c1cccc(OCCCN2CCN(c3nc(N)nc4c3CCc3cc(OCc5ccc(Cl)cc5)ccc3-4)CC2)c1", "100 to 500 nM"),
    ("Nc1nc2c(c(N3CCN(CCO[C@H]4C[C@@H](C(=O)O)C4)CC3)n1)CCc1cc(OCc3ccc(Cl)cc3)ccc1-2", "< 100 nM"),
    ("N#CC1(C(=O)O)CCC(COCCN2CCN(c3nc(N)nc4c3CCc3cc(OCc5ccc(Cl)cc5)ccc3-4)CC2)CC1 (stereo not shown) [159(b), hydrochloride]", "< 100 nM"),
    ("CN1CCN(c2nc(N)nc3c2CCc2cc(NS(=O)(=O)C4CCCCC4)ccc2-3)CC1", "100 to 500 nM"),
]
